tested on: P388; assay: Compound was evaluated for cytotoxicity against P388 leukemia cell line.; assay type: functional, cell-based; conditions: Mus musculus
readoutKind: pIC50
Note on units: pIC50 is unitless, being -log10 of a concentration expressed in mol/L.

COc1cccc2c1C(=O)c1c(O)c3c(c(O)c1C2=O)C[C@@](O)(C(=O)CNC(=O)OCc1cc(C)c(OC(=O)OCCOCCOCCO)c(C)c1)C[C@@H]3OC1CC(N)C(O)C(C)O1 (stereo not given in full)
6.75

Endpoint output: pIC50 of COc1cccc2c1C(=O)c1c(O)c3c(c(O)c1C2=O)C[C@@](O)(C(=O)CNC(=O)OCc1ccc(NC(=O)CCOCCOCCO)cc1)C[C@@H]3OC1CC(N)C(O)C(C)O1 (stereo not given in full) . Value?
6.34

Record request: pIC50 value, item COc1cccc2c1C(=O)c1c(O)c3c(c(O)c1C2=O)C[C@@](O)(C(=O)CNC(=O)OCc1ccc(OC(=O)CCOCCOCCO)cc1)C[C@@H]3OC1CC(N)C(O)C(C)O1 (stereo not given in full)
8.10

If you can, please state the reported pIC50 value of COc1cccc2c1C(=O)c1c(O)c3c(c(O)c1C2=O)C[C@@](O)(C(=O)CNC(=O)OCc1ccccc1NC(=O)OCCOCCOCCO)C[C@@H]3OC1CC(N)C(O)C(C)O1 (stereo not given in full) .
6.89

Which pIC50 value is on record for COc1cccc2c1C(=O)c1c(O)c3c(c(O)c1C2=O)C[C@@](O)(C(=O)CNC(=O)OCc1ccc(OC(=O)C(C)(C)NC(=O)CCOCCOCCO)cc1)C[C@@H]3OC1CC(N)C(O)C(C)O1 (stereo not given in full) ?
7.74
